Values from PubChem BioAssay AID1963970

Test system: 931267-113-T-J1-PDC multicell spheroid viability;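 further: viability read 7 days after compound addition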
test: Anticancer human tumor 931267-113-T-J1-PDC patient-derived colon adenocarcinoma cell line growth inhibition [PI3K]
test-parameters: second compound 1 µM; first compound 3.16 µM; hits give low values
Please respond with satisfied when measured viability, T/C is strictly beneath 60%, and with not satisfied in all other cases.

[[record]]
compound = "CC(Cn1ccc(-c2ccc(C#N)c(Cl)c2)n1)NC(=O)c1cc(C(C)O)[nH]n1 (stereo not given) + COc1c(OCCCN2CCOCC2)ccc2c3n(c(=NC(=O)c4cnc(N)nc4)nc12)CCN3"
assigned_category = "satisfied"

[[record]]
compound = "C=CC(=O)N1CCN(c2nc(=O)n(-c3c(C)ccnc3C(C)C)c3nc(-c4c(O)cccc4F)c(F)cc23)C(C)C1 (stereo not given) + COc1c(OCCCN2CCOCC2)ccc2c3n(c(=NC(=O)c4cnc(N)nc4)nc12)CCN3"
assigned_category = "satisfied"

[[record]]
compound = "CNC(=O)c1ccc(N2C(=S)N(c3ccc(C#N)c(C(F)(F)F)c3)C(=O)C2(C)C)cc1F + Cc1nc(NC(=O)N2CCCC2C(N)=O)sc1-c1ccnc(C(C)(C)C(F)(F)F)c1"
assigned_category = "not satisfied"

[[record]]
compound = "Cn1nccc1Nc1nccc(-c2ccn(C(CO)c3ccc(Cl)c(F)c3)c(=O)c2)n1 (stereo not given) + CC(Nc1ccc2c(c1)OCCn1cc(N3C(=O)OCC3C(F)F)nc1-2)C(N)=O"
assigned_category = "satisfied"

[[record]]
compound = "CCCS(=O)(=O)Nc1ccc(F)c(C(=O)c2c[nH]c3ncc(-c4ccc(Cl)cc4)cc23)c1F + Cc1nc(NC(=O)N2CCCC2C(N)=O)sc1-c1ccnc(C(C)(C)C(F)(F)F)c1"
assigned_category = "not satisfied"

[[record]]
compound = "CNC(=O)c1ccc(N2C(=S)N(c3ccc(C#N)c(C(F)(F)F)c3)C(=O)C2(C)C)cc1F + COc1c(OCCCN2CCOCC2)ccc2c3n(c(=NC(=O)c4cnc(N)nc4)nc12)CCN3"
assigned_category = "satisfied"

[[record]]
compound = "Cn1nccc1Nc1nccc(-c2ccn(C(CO)c3ccc(Cl)c(F)c3)c(=O)c2)n1 (stereo not given) + CC(Nc1ncnc2nc[nH]c12)c1cc2cccc(Cl)c2c(=O)n1-c1ccccc1"
assigned_category = "not satisfied"

[[record]]
compound = "CCCS(=O)(=O)Nc1ccc(F)c(C(=O)c2c[nH]c3ncc(-c4ccc(Cl)cc4)cc23)c1F + COc1c(OCCCN2CCOCC2)ccc2c3n(c(=NC(=O)c4cnc(N)nc4)nc12)CCN3"
assigned_category = "satisfied"

[[record]]
compound = "CC1(C)CCC(Nc2ncc(C(F)(F)F)c(-c3c[nH]c4c(P(C)(C)=O)c(C#N)ccc34)n2)CN1 (stereo not given) + CC(Nc1ccc2c(c1)OCCn1cc(N3C(=O)OCC3C(F)F)nc1-2)C(N)=O"
assigned_category = "not satisfied"

